Biological target: Hepatocyte growth factor receptor (Homo sapiens, UniProt P08581)
Sequence (P08581 whole entry): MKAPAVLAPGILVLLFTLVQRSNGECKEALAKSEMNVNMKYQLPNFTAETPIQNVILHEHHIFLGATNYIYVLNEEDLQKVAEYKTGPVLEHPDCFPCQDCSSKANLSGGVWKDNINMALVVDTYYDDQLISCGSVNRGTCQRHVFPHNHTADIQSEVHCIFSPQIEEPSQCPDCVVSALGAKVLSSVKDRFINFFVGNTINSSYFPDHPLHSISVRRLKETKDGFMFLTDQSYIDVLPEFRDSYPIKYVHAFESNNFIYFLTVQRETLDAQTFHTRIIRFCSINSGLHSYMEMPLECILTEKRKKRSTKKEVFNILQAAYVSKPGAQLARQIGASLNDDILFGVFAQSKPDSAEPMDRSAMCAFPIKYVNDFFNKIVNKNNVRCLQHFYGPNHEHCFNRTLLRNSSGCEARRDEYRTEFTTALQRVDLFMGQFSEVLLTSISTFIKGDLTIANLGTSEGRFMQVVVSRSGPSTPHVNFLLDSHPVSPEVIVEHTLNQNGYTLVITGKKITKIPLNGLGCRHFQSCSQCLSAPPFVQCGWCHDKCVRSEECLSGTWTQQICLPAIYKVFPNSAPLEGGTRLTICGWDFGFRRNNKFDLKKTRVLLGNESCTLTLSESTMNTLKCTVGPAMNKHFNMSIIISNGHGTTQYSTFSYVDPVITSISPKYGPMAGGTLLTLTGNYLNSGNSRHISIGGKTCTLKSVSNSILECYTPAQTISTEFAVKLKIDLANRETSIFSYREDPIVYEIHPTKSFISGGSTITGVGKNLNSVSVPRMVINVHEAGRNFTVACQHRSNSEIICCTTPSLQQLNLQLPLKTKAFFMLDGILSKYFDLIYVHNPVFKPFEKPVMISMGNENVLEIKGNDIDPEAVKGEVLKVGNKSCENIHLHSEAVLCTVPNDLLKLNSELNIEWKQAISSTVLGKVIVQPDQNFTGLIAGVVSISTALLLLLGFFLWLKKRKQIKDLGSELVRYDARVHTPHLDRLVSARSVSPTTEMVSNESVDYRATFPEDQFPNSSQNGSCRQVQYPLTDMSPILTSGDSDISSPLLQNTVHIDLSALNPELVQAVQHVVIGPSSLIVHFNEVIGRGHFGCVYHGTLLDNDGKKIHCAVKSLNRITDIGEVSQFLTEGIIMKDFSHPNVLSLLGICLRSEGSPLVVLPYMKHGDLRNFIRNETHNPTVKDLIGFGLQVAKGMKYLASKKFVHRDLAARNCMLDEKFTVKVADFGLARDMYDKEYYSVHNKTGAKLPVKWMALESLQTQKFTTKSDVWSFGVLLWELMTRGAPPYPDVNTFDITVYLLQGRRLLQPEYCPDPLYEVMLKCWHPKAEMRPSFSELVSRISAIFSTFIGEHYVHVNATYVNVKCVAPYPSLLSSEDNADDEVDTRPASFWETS
Assay: Inhibition of c-MET assessed as inhibition of HGF-induced phosphorylation at 5 uM by Western blotting analysis
The source made the active and inactive calls. The rule behind the calls is not given here.
Choose the fitting class; nothing outside t = active, f = inactive is accepted.

Could you kindly confirm the outcome this assay logged for CC(C)CC(=O)c1c(O)c(C=O)c(O)c(C[C@@]2(C)CC[C@@H]3[C@@H]2[C@H]2[C@@H](CC[C@@]3(C)O)C2(C)C)c1O ?
t

Could you kindly confirm the outcome this assay logged for Cc1c(O)c(C=O)c(O)c(C(=O)CC(C)C)c1O ?
f

---

Biological target: Hepatocyte growth factor receptor (Homo sapiens, UniProt P08581)
Experiment: Inhibition of c-MET assessed as inhibition of HGF-induced phosphorylation at 5 uM by Western blotting analysis
Calls of active or inactive are those of the source. The calls are words filed in the database; no cut-off is given here.
Choose the fitting class; nothing outside active, inactive is accepted.

Could you kindly confirm the outcome this assay logged for CC(C)CC(=O)c1c(O)c(C=O)c(O)c(C=O)c1O ?
inactive

Could you kindly confirm the outcome this assay logged for CC1(C)[C@H]2[C@H]3[C@@H](CC[C@]3(C)O)[C@](C)(O)CC[C@H]21 ?
inactive

Could you kindly confirm the outcome this assay logged for C[C@@H]1CC[C@@H]2[C@@H]1[C@H]1[C@@H](CC[C@@]2(C)O)C1(C)C ?
inactive

Could you kindly confirm the outcome this assay logged for CC(C)C[C@@H](c1c(O)c(C=O)c(O)c(C=O)c1O)[C@@]1(C)CC[C@@H]2[C@@H]1[C@H]1[C@@H](CC[C@@]2(C)O)C1(C)C ?
active

Could you kindly confirm the outcome this assay logged for CC(C)C[C@H](c1c(O)c(C=O)c(O)c(C=O)c1O)[C@@]1(C)CC[C@@H]2[C@@H]1[C@H]1[C@@H](CC[C@@]2(C)O)C1(C)C ?
active
